Test system: E. coli TESEC Alr+ wild-type control
Assay: growth (OD600 after 10 h); higher = more growth (less inhibition)
Conditions: compound 0.1 mM; raw OD600 reference: median of DMSO wells 0.49, cell-free background 0.052
Structures can show the parent of a compound that is named as a salt.
OUTCOME_MEASURE: growth
Kindly provide the number alone.

Task: Item "CC[C@H]1OC(=O)[C@H](C)[C@@H](O[C@H]2C[C@@](C)(OC)[C@@H](O)[C@H](C)O2)[C@H](C)[C@@H](O[C@@H]2O[C@H](C)C[C@H](N(C)C)[C@H]2O)[C@](C)(O)C[C@@H](C)CN(C)[C@H](C)[C@@H](O)[C@]1(C)O" : provide growth
Result: 0.0526

Task: Item "CCCC(CCC)C(=O)O" : provide growth
Result: 0.478

Task: Item CN(C)CCN1C(=O)c2ccccc2N(C)c2ccccc21 [Dibenzepine hydrochloride] : provide growth
Result: 0.608

----------
Tested on: E. coli TESEC Mtb Alr
Test: growth (OD600 after 10 h); higher = more growth (less inhibition)
Conditions: arabinose 1000 nM; compound 0.1 mM; raw OD600 reference: median of DMSO wells 0.294, cell-free background 0.041
Where a name gives a salt, the structure may show the parent alone.
Threshold rule: growth greater than or equal to 0.2 is Condition met; below that, Condition not met.

{"columns": ["COMPOUND", "CLASS_NAME"],
 "data": [
  ["C[C@]12CCC(=O)C=C1CC[C@@H]1[C@@H]2C(=O)C[C@@]2(C)[C@H]1CC[C@]2(O)C(=O)CO", "Condition met"]
]}

Task: Hello, I need to know if CC(C)(C)NCC(O)c1cc(O)cc(O)c1 (stereo not drawn) [Terbutaline hemisulfate] has measured growth not below 0.2. Thanks!
Result: Condition met

Task: Hello, I need to know if CC(COc1ccccc1)N(CCCl)Cc1ccccc1 (stereo not drawn) [Phenoxybenzamine hydrochloride] has measured growth not below 0.2. Thanks!
Result: Condition not met

Task: Hello, I need to know if CN(CCCCCCCCCCN(C)C(=O)Oc1cccc([N+](C)(C)C)c1)C(=O)Oc1cccc([N+](C)(C)C)c1 [Demecarium bromide] has measured growth not below 0.2. Thanks!
Result: Condition not met

Task: Hello, I need to know if OC(CCN1CCCC1)(c1ccccc1)C1CCCCC1 (stereo not drawn) [Procyclidine hydrochloride] has measured growth not below 0.2. Thanks!
Result: Condition met

Task: Hello, I need to know if Cc1ccc(O)c([C@H](CCN(C(C)C)C(C)C)c2ccccc2)c1 [Tolterodine tartrate] has measured growth not below 0.2. Thanks!
Result: Condition met

Task: Hello, I need to know if CCCCNc1ccc(C(=O)OCCOCCOCCOCCOCCOCCOCCOCCOCCOC)cc1 [Benzonatate] has measured growth not below 0.2. Thanks!
Result: Condition met

----------
System: E. coli TESEC Mtb DapB
Assay: growth (OD600 after 10 h); higher = more growth (less inhibition)
Conditions: arabinose induction (level): High; compound 0.1 mM; raw OD600 reference: median of DMSO wells […], cell-free background 0.041
Structures can show the parent of a compound that is named as a salt.
Listing of entries alongside the reported growth.
Kindly provide the number alone.

Use these answered entries as a reference point.
{"columns": ["COMPOUND", "growth"],
 "data": [
  ["C[C@H](N)[C@H](O)c1cccc(O)c1 [Metaraminol bitartrate]", 0.208],
  ["Cc1c(-c2ccccc2)oc2c(C(=O)OCCN3CCCCC3)cccc2c1=O [Flavoxate hydrochloride]", 0.168],
  ["Cc1ccc(S(=O)(=O)NC(=O)NN2CCCCCC2)cc1 [Tolazamide]", 0.214],
  ["OCCN(CCO)c1nc(N2CCCCC2)c2nc(N(CCO)CCO)nc(N3CCCCC3)c2n1 [Dipyridamole]", 0.195],
  ["CCN(CCCCOC(=O)c1ccc(OC)c(OC)c1)C(C)Cc1ccc(OC)cc1 (stereo not drawn) [Mebeverine hydrochloride]", 0.166]
]}

Task: Please report the measured growth for Cc1nnc(NS(=O)(=O)c2ccc(N)cc2)s1 [Sulfamethizole] tested on E. coli TESEC Mtb DapB.
Result: 0.189

Task: Please report the measured growth for O=C(CCCN1CCC(O)(c2ccc(Br)cc2)CC1)c1ccc(F)cc1 [Bromperidol] tested on E. coli TESEC Mtb DapB.
Result: 0.177

Task: Please report the measured growth for Cn1c([N+](=O)[O-])cnc1COC(N)=O [Ronidazole] tested on E. coli TESEC Mtb DapB.
Result: 0.187

Task: Please report the measured growth for CC(C)(C)c1ccc(C(O)CCCN2CCC(C(O)(c3ccccc3)c3ccccc3)CC2)cc1 (stereo not drawn) [Terfenadine] tested on E. coli TESEC Mtb DapB.
Result: 0.199

Task: Please report the measured growth for NC[C@H]1O[C@H](O[C@H]2[C@H](O[C@@H]3O[C@H](CO)[C@@H](O)[C@H]3O)[C@@H](O)[C@H](N)C[C@@H]2N)[C@H](N)[C@@H](O)[C@@H]1O [Ribostamycin sulfate salt] tested on E. coli TESEC Mtb DapB.
Result: 0.218

Task: Please report the measured growth for CN1CCN(C(c2ccccc2)c2ccc(Cl)cc2)CC1 (stereo not drawn) [Chlorcyclizine hydrochloride] tested on E. coli TESEC Mtb DapB.
Result: 0.205

Task: Please report the measured growth for C=C(CC)C(=O)c1ccc(OCC(=O)O)c(Cl)c1Cl [Ethacrynic acid] tested on E. coli TESEC Mtb DapB.
Result: 0.18

Task: Please report the measured growth for COCCc1ccc(OCC(O)CNC(C)C)cc1 (racemic) [Metoprolol-(+,-) (+)-tartrate salt] tested on E. coli TESEC Mtb DapB.
Result: 0.214

Task: Please report the measured growth for CCC(=O)O[C@]1(C(=O)CCl)[C@@H](C)C[C@H]2[C@@H]3CCC4=CC(=O)C=C[C@]4(C)[C@@]3(F)[C@@H](O)C[C@@]21C [Clobetasol propionate] tested on E. coli TESEC Mtb DapB.
Result: 0.145

Task: Please report the measured growth for O=C(Nc1cccc2c(=O)cc(-c3nnn[nH]3)oc12)c1ccc(OCCCCc2ccccc2)cc1 [Pranlukast] tested on E. coli TESEC Mtb DapB.
Result: 0.158

Task: Please report the measured growth for CN1CCN(C(c2ccccc2)c2ccccc2)CC1 [Cyclizine hydrochloride] tested on E. coli TESEC Mtb DapB.
Result: 0.168

Task: Please report the measured growth for C[C@@H]1CN(c2c(F)c(N)c3c(=O)c(C(=O)O)cn(C4CC4)c3c2F)C[C@H](C)N1 [Sparfloxacin] tested on E. coli TESEC Mtb DapB.
Result: 0.0488

Task: Please report the measured growth for Cn1c(NCCN(CCO)CCCc2ccc([N+](=O)[O-])cc2)cc(=O)n(C)c1=O [Nifekalant] tested on E. coli TESEC Mtb DapB.
Result: 0.2

Task: Please report the measured growth for COc1c(N2C[C@@H]3CCCN[C@@H]3C2)c(F)cc2c(=O)c(C(=O)O)cn(C3CC3)c12 [Moxifloxacin] tested on E. coli TESEC Mtb DapB.
Result: 0.049
